Test system: serum IgM anti-estrogen antibodies
Experiment: ELISA binding of IgM estrogen antibodies to different hormones in solid phase
Design: species or system human
Details: sample 2; relative to estrogen = 100

- COMPOUND: "CC(C)CCC[C@@H](C)[C@H]1CC[C@H]2[C@@H]3CC=C4C[C@@H](O)CC[C@]4(C)[C@H]3CC[C@]12C"
  IgM % reaction: "−12%"
- COMPOUND: "C[C@]12CCC(=O)C=C1CC[C@@H]1[C@@H]2[C@@H](O)C[C@@]2(C)[C@H]1CC[C@]2(O)C(=O)CO [HC, Hydrocortisone]"
  IgM % reaction: "−21%"
- COMPOUND: "CC(=O)[C@@]1(O)CC[C@H]2[C@@H]3CCC4=CC(=O)CC[C@]4(C)[C@H]3CC[C@@]21C [HP, 17-α-hydroxy-progesterone]"
  IgM % reaction: "−42%"
- COMPOUND: "CC(=O)[C@H]1CC[C@H]2[C@@H]3CCC4=CC(=O)CC[C@]4(C)[C@H]3CC[C@]12C"
  IgM % reaction: "−31%"
